tested on: Yellow Fever virus (17D); assay: microbe, parasite or virus in culture; type: cell-based; conditions: Vero, read-out: Antiviral EC50 Yellow Fever virus, Visual CPE score
pEC50: −log10 of the molar value.
Measured endpoint: pEC50

Qu. Kindly indicate its recorded pEC50. Item: `COc1c(C)c2c(c(O)c1C/C=C(\C)CCC(=O)O)C(=O)OC2`
Ans. < 4.00

====

test system: influenza B virus B/Ned/537/05; experiment: CPE reduction assay for influenza virus in MDCK cells, influenza B; type: cell-based; details: Influenza B virus; MDCK cells, B/Ned/537/05, visual CPE scoring; read-out: Antiviral EC50 Influenza B CPE
Measured endpoint: EC50
Please provide the amount together with its unit, number first.

Qu. Note down EC50 recorded for CC(=O)N[C@H]1[C@H]([C@H](O)[C@H](O)CO)OC(C(=O)O)=C[C@@H]1N=C(N)N [zanamivir]
Ans. 2 µM
